Catalogue of FXa assay OD, 5 nM Ab, 10 nM TFPI values
molecular target: recombinant human TFPI (tissue factor pathway inhibitor) (human, UniProt P10646 29-304); test: cell-based or functional assay

>  <BINDER>
clone 1024 (antibody, V domains shown) VH: EVQLVESGGGLVKPGGSLRLSCAASGFTFSSYAMSWVRQAPGKGLEWVSTITTGGSYTYYADSVDGRFTISRDNAKNSLYLQMNSLRAEDTAVYYCARQDGNFLMDYWGQGTLVTVSS VL: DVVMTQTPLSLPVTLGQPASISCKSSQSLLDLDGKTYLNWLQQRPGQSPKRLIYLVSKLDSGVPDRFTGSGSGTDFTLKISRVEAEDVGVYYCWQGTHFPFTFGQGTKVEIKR

>  <FXa assay OD, 5 nM Ab, 10 nM TFPI>
0.03

$$$$
>  <BINDER>
clone 1123 (antibody, V domains shown) VH: EVQLVESGGGLVKPGGSLRLSCAASGFTFSSYAMNWVRQAPGKGLEWVSTITTGGSHTYYADSVEGRFTISRDNAKNSLYLQMNSLRAEDTAVYYCARQDGHFLMDYWGQGTLVTVSS VL: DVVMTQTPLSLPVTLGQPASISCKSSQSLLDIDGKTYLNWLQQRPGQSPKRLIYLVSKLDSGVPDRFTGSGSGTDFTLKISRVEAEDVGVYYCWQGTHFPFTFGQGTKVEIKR

>  <FXa assay OD, 5 nM Ab, 10 nM TFPI>
0.071

$$$$
>  <BINDER>
clone 1023 (antibody, V domains shown, scFv on yeast at selection; human IgG4/kappa IgG as purified) VH: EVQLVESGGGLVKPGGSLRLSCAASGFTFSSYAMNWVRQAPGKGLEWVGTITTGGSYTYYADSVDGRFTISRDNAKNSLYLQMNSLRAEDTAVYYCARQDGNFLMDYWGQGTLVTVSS VL: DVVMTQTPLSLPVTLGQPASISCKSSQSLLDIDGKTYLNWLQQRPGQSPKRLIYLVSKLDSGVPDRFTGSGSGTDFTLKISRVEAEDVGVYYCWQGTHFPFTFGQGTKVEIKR

>  <FXa assay OD, 5 nM Ab, 10 nM TFPI>
0.229

$$$$
>  <BINDER>
clone 1001 (antibody, V domains shown) VH: EVQLVESGGGLVKPGGSLRLSCAASGFTFSSYAMNWVRQAPGKGLEWVSTITTGGSYTYYADSVDGRFTISRDNAKNSLYLQMNSLRAEDTAVYYCARQDGNFLMDYWGQGTLVTVSS VL: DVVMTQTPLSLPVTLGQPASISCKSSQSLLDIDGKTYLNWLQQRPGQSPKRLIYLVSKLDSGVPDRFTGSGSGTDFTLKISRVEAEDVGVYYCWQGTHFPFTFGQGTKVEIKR

>  <FXa assay OD, 5 nM Ab, 10 nM TFPI>
0.05

$$$$
